TGI overview
# Test system: EKVX NSCLC
# Protocol Details: NCI tumour cell line growth inhibition, 48 h
Report the figure in µM without appending any unit label.

COc1cc(OC)c(S(N)(=O)=O)cc1C(=O)/C=C/c1ccccc1: 27.6

Now examine the next entry.
Query: Provide TGI, tested on EKVX NSCLC, for CCCCCCNC(=O)Oc1ccc(/C(=C(/C)c2ccc(OC)cc2)c2ccc(OCCN3CCCCCC3)cc2)cc1 .
Reply: 19.2

---

# Tested on: 786-0 renal
# Protocol Details: NCI tumour cell line growth inhibition, 48 h
Quick list: TGI per entry.
Enter your answer as a number in µM; do not include the unit.

Query: Annotate the compound C#Cc1nc(/C=C/C(=O)c2nccn2C)cs1 with its measured TGI.
Reply: 0.623

Query: Name the recorded TGI of the item CCCCCCNC(=O)Oc1ccc(/C(=C(/C)c2ccc(OC)cc2)c2ccc(OCCN3CCCCCC3)cc2)cc1 in your answer.
Reply: 3.1

Query: Fill in TGI for record COc1cc(OC)c(S(N)(=O)=O)cc1C(=O)/C=C/c1ccccc1
Reply: 20.8

---

# Tested on: MALME-3M melanoma
# Protocol Details: NCI tumour cell line growth inhibition, 48 h
# GI50 values compiled below

Past entries and their recorded results:
N#Cc1c(-n2c(Br)c(Br)c3cc(Br)ccc32)[nH]c2c(Br)cc(Br)cc12: 1680 nM
O=C(CCCCCCNC(=O)C(O)(O)C(F)(F)F)Nc1ccc(Cl)cc1: 2830 nM
CCCCCCNC(=O)Oc1ccc(/C(=C(/C)c2ccc(OC)cc2)c2ccc(OCCN3CCCCCC3)cc2)cc1: 1770 nM
C#Cc1nc(/C=C/C(=O)c2nccn2C)cs1: 893 nM

Query: Please report GI50 for the following molecule: COc1cc(OC)c(S(N)(=O)=O)cc1C(=O)/C=C/c1ccccc1
Reply: 13900 nM

---

Measured TGI, listed per entry.
# System: SN12C renal
# Protocol Details: NCI tumour cell line growth inhibition, 48 h
Only the number, expressed in µM, is required.

O=C(CCCCCCNC(=O)C(O)(O)C(F)(F)F)Nc1ccc(Cl)cc1: 35.6
CCCCCCNC(=O)Oc1ccc(/C(=C(/C)c2ccc(OC)cc2)c2ccc(OCCN3CCCCCC3)cc2)cc1: 4.77

Now take the following molecule into account.
Query: Return reported TGI. Input molecule: COc1cc(OC)c(S(N)(=O)=O)cc1C(=O)/C=C/c1ccccc1
Reply: 16.9

---

# Test system: HL-60(TB) leukemia
# Protocol Details: NCI tumour cell line growth inhibition, 48 h
The entries below come with measured TGI values attached.
Write down the numeric answer in nM and omit the unit.

COc1cc(OC)c(S(N)(=O)=O)cc1C(=O)/C=C/c1ccccc1: 23200
CCCCCCNC(=O)Oc1ccc(/C(=C(/C)c2ccc(OC)cc2)c2ccc(OCCN3CCCCCC3)cc2)cc1: 3470
C#Cc1nc(/C=C/C(=O)c2nccn2C)cs1: 645

// next item, TGI requested
Query: Given Cc1cc(O)c(=O)cc2c1C[C@H]1CC(C)(C)/C=C/C[C@]3(C)Oc4cc(=O)c(O)cc(C)c4C[C@H]3C[C@H](O)[C@@]1(C)O2 , respond with its TGI.
Reply: 128

---

# Test system: NCI-H522 lung
# Protocol Details: NCI tumour cell line growth inhibition, 48 h
Reported Property: TGI
Write the quantity with the unit trailing the number.

Field: example entries. Status: answers known.
CCCCCCNC(=O)Oc1ccc(/C(=C(/C)c2ccc(OC)cc2)c2ccc(OCCN3CCCCCC3)cc2)cc1: 16.2 µM
C#Cc1nc(/C=C/C(=O)c2nccn2C)cs1: 1.37 µM
Cc1cc(O)c(=O)cc2c1C[C@H]1CC(C)(C)/C=C/C[C@]3(C)Oc4cc(=O)c(O)cc(C)c4C[C@H]3C[C@H](O)[C@@]1(C)O2: 0.0517 µM

Query molecule follows.
Query: Give the measured TGI for O=C(CCCCCCNC(=O)C(O)(O)C(F)(F)F)Nc1ccc(Cl)cc1
Reply: 19.8 µM

Where do the numbers come from? From PubChem BioAssay (NCI).
